System: monocotyledonous and dicotyledonous test plants
Assay: Post-emergence herbicidal action
Type: in vivo
Details: Echinochloa, 250 g a.i./ha, about 18 days, rating 0-10
Hi there, I'd appreciate the recorded Post-emergence action, Echinochloa for every entry that follows.
One number for each entry.

>>> df
                                   compound  reported
0  COc1nn(Cc2nc(C(F)(F)F)ccc2C(=O)C2=C(O)CCCC2=O)c(=O)s1         9
1  O=C1CCCC(O)=C1C(=O)c1ccc(C(F)(F)F)nc1Cn1sc(Cl)cc1=O         7
2  CCN1C(=O)N(Cc2nc(C(F)(F)F)ccc2C(=O)C2=C(O)C(C)(C)C(=O)C(C)(C)C2=O)C(=O)C1C (stereo not drawn)         0
3  CCOc1nn(Cc2nc(C(F)(F)F)ccc2C(=O)C2=C(O)CCCC2=O)c(=O)n1C1CC1         8
4  CCOc1nn(Cc2nc(C(F)(F)F)ccc2C(=O)c2cnn(C)c2O)c(=O)n1CC         4

For each of the compounds below, note its Post-emergence action, Echinochloa.
1. Cn1ncn(Cc2nc(C(F)(F)F)ccc2C(=O)C2=C(O)C(C)(C)C(=O)C(C)(C)C2=O)c1=O
2. Cc1nn(Cc2nc(C(F)(F)F)ccc2C(=O)C2=C(O)CCCC2=O)c(=O)s1
3. Cc1nn(CCOCc2nc(C(F)(F)F)ccc2C(=O)C2=C(O)C3CCC(C3)C2=O)c(=O)o1 (stereo not drawn)
4. COc1nn(Cc2nc(C(F)(F)F)ccc2C(=O)C2=C(O)C3CCC(C3)C2=O)c(=O)s1 (stereo not drawn)

[9, 7, 7, 9]

For each of the compounds below, note its Post-emergence action, Echinochloa.
1. Cc1nn(Cc2nc(C(F)(F)F)ccc2C(=O)C2=C(O)C(C)(C)CC(C)(C)C2=O)c(=O)o1
2. Cn1ncc(C(=O)c2ccc(C(F)(F)F)nc2Cn2c(=O)oc3cc(Cl)ccc32)c1O
3. Cc1nn(Cc2nc(C(F)(F)F)ccc2C(=O)C2=C(O)C(C)(C)C(=O)C(C)(C)C2=O)c(=O)o1
4. Cc1nn(Cc2nc(C(F)(F)F)ccc2C(=O)c2cnn(C)c2O)c(=O)o1
5. Cc1nn(Cc2nc(C(F)(F)F)ccc2C(=O)C2=C(O)C(C)(C)CC(C)(C)C2=O)c(=O)s1
6. COc1nn(Cc2nc(C(F)(F)F)ccc2C(=O)c2cnn(C)c2O)c(=O)n1C

[7, 9, 8, 9, 7, 8]

---

Test system: monocotyledonous and dicotyledonous test plants
Experiment: Herbicidal action prior to emergence of the plants (pre-emergence action)
Assay type: in vivo
Conditions: Sida; 250 g a.i./ha; pre-emergence spray; evaluated after 3 weeks; scale 10=total damage, 0=no action
API: label(entry) gives Met if the entry's Pre-emergence action: Sida (rating) is strictly smaller than 9; on equality or larger values it gives Not met.

Solved entries (count: 3):
>>> print(df.to_string())
                                   compound    label
0  COc1nn(Cc2nc(C(F)(F)F)ccc2C(=O)C2=C(O)CCCC2=O)c(=O)s1 [Compound A1.091]      Met
1  Cc1nn(Cc2nc(C(F)(F)F)ccc2C(=O)C2=C(O)C(C)(C)C(=O)C(C)(C)C2=O)c(=O)o1 [Compound A8.008]  Not met
2  COc1nn(Cc2nc(C(F)(F)F)ccc2C(=O)c2cnn(C)c2O)c(=O)s1 [Compound B1.096]      Met

Please state whether Pre-emergence action: Sida (rating) is below 9 for Cn1ncc(C(=O)c2ccc(C(F)(F)F)nc2Cn2cnn(C)c2=O)c1O [Compound B1.080]
Met

Please state whether Pre-emergence action: Sida (rating) is below 9 for Cc1nn(Cc2nc(C(F)(F)F)ccc2C(=O)C2=C(O)CCCC2=O)c(=O)s1 [Compound A1.079]
Not met

Please state whether Pre-emergence action: Sida (rating) is below 9 for Cc1nn(Cc2nc(C(F)(F)F)ccc2C(=O)C2=C(O)C3CCC(C3)C2=O)c(=O)s1 (stereo not shown) [Compound A6.079]
Met

Please state whether Pre-emergence action: Sida (rating) is below 9 for Cc1nn(CCOCc2nc(C(F)(F)F)ccc2C(=O)C2=C(O)C3CCC(C3)C2=O)c(=O)o1 (stereo not shown) [Compound A6.100]
Not met

Please state whether Pre-emergence action: Sida (rating) is below 9 for CSC(C)n1c(C)cc(=O)n1Cc1nc(C(F)(F)F)ccc1C(=O)C1=C(O)CCCC1=O (racemic) [Compound A1.055]
Not met

---

Tested on: selected test plants
Assay: Post-emergence action in a different test arrangement (Table B3)
Type: in vivo
Conditions: Nasturtium, 250 g a.i./ha
metric: Post-emergence action (different test arrangement), Nasturtium
Give bare numbers.

Solved entries (count: 5):
>>> print(df.to_string())
                                   compound  reported
0  CC(C)N1CC(=O)N(Cc2nc(C(F)(F)F)ccc2C(=O)C2=C(O)CCCC2=O)C1=O         8
1  Cc1nc(C)n(Cc2nc(C(F)(F)F)ccc2C(=O)C2=C(O)CCCC2=O)c(=O)c1Cl         9
2  CC1CCC(=O)N1Cc1nc(C(F)(F)F)ccc1C(=O)C1=C(O)CCCC1=O (centres unmarked)        10
3  Cc1nn(Cc2nc(C(F)(F)F)ccc2C(=O)C2=C(O)CCCC2=O)c(=O)o1        10
4  O=C1CCCC(O)=C1C(=O)c1ccc(C(F)(F)F)nc1CN1CCC1=O        10

For each of the compounds below, note its Post-emergence action (different test arrangement), Nasturtium.
1. O=C1CCCC(O)=C1C(=O)c1ccc(C(F)(F)F)nc1COCCN1CCCC1=O
2. Cn1ncc(C(=O)c2ccc(C(F)(F)F)nc2CN2CN(c3ccc(Cl)cc3)CC2=O)c1O
3. COc1nn(Cc2nc(C(F)(F)F)ccc2C(=O)C2=C(O)CCCC2=O)c(=O)n1C

1: 10; 2: 8; 3: 9

---

Tested on: monocotyledonous and dicotyledonous test plants
Experiment: Herbicidal action prior to emergence of the plants (pre-emergence action)
Format: in vivo
Conditions: Scirpus; 250 g a.i./ha; pre-emergence spray; evaluated after 3 weeks; scale 10=total damage, 0=no action
metric: Pre-emergence action: Scirpus (rating)
One number for each entry.

>>> print(df.to_string())
                                   compound                              assay_system  reported
0  Cn1ncc(C(=O)c2ccc(C(F)(F)F)nc2Cn2cnn(C)c2=O)c1O  monocotyledonous and dicotyledonous test plants         9
1  Cc1nn(CCOCc2nc(C(F)(F)F)ccc2C(=O)C2=C(O)C3CCC(C3)C2=O)c(=O)o1 (centres unmarked)  monocotyledonous and dicotyledonous test plants        10
2  Cn1ncn(Cc2nc(C(F)(F)F)ccc2C(=O)C2=C(O)C3CCC(C3)C2=O)c1=O (centres unmarked)  monocotyledonous and dicotyledonous test plants        10

For each of the compounds below, note its Pre-emergence action: Scirpus (rating).
1. Cn1ncn(Cc2nc(C(F)(F)F)ccc2C(=O)C2=C(O)C(C)(C)C(=O)C(C)(C)C2=O)c1=O
2. Cc1nn(Cc2nc(C(F)(F)F)ccc2C(=O)c2cnn(C)c2O)c(=O)o1

[8, 10]

For each of the compounds below, note its Pre-emergence action: Scirpus (rating).
1. COc1nn(Cc2nc(C(F)(F)F)ccc2C(=O)C2=C(O)CCCC2=O)c(=O)s1
2. Cc1nn(Cc2nc(C(F)(F)F)ccc2C(=O)C2=C(O)C3CCC(C3)C2=O)c(=O)s1 (centres unmarked)
3. COc1nn(Cc2nc(C(F)(F)F)ccc2C(=O)c2cnn(C)c2O)c(=O)s1

9
9
7

---

Tested on: monocotyledonous and dicotyledonous test plants
Experiment: Herbicidal action prior to emergence of the plants (pre-emergence action)
Assay type: in vivo
Settings: Cyperus; 250 g a.i./ha; pre-emergence spray; evaluated after 3 weeks; scale 10=total damage, 0=no action
Hi there, I'd appreciate the recorded Pre-emergence action: Cyperus (rating) for every entry that follows.
One number for each entry.

In [3]: df
Out[3]:
                                   compound                                  metric  reported
0  Cn1ncc(C(=O)c2ccc(C(F)(F)F)nc2Cn2cnn(C)c2=O)c1O [Compound B1.080]  Pre-emergence action: Cyperus (rating)         9
1  CC(C)N1CC(=O)N(Cc2nc(C(F)(F)F)ccc2C(=O)c2cnn(C)c2O)C1=O [Compound B1.170]  Pre-emergence action: Cyperus (rating)         8
2  Cc1nn(Cc2nc(C(F)(F)F)ccc2C(=O)C2=C(O)C(C)(C)C(=O)C(C)(C)C2=O)c(=O)o1 [Compound A8.008]  Pre-emergence action: Cyperus (rating)         0

# context switch: different compound, same Pre-emergence action: Cyperus (rating)
Form field: Pre-emergence action: Cyperus (rating) recorded for Cc1nn(CCOCc2nc(C(F)(F)F)ccc2C(=O)C2=C(O)C3CCC(C3)C2=O)c(=O)o1 (stereo not shown) [Compound A6.100] with monocotyledonous and dicotyledonous test plants (enter value)
6

These measurements were taken from patent US20050256003A1.
